- METHOD: Solubility in phosphate buffer by radiotracer analysis method
- Assay type: physicochemical

STRUCTURE SMILES STRING | solubility / µg/mL
N.N.N.N.O=P(O)(O)Oc1ccc(-c2nc(O)c3cc([127I])ccc3n2)c(OP(=O)(O)O)c1 | 4350
